Catalogue of compounds with associated growth
Tested on: 786-0 renal
method.description: NCI-60 one-dose screen, 48 h (100 = growth as untreated, 0 = no growth, -100 = all killed)
test.settings: 10 µM unless noted
About 83,000 compounds went through this panel and 20% of them were active in at least one assay; those are over-represented in the sample as a whole.
Report as a plain number; the unit % is understood.

{"columns": ["compound", "measurement.target", "units.symbol", "growth"],
 "data": [
  ["Cn1c(=O)c2c(nc(N/N=C/c3ccccc3Cl)n2C)n(C)c1=O", "786-0 renal", "%", 97.8]
]}

# lookup: growth of "COc1ccc(-c2cc(C(=O)Nc3ccc(Br)cc3)nc3[nH]c(=O)sc23)cc1"
57.2

Entry under review: "COc1ccc([C@H]2c3[nH]c4ccccc4c3C[C@H]3C(=O)N(CCCCCCC(=O)NO)CC(=O)N23)cc1" . Reported growth?
83.6

Fill blank: measured growth of the compound CC(=O)CC(c1ccc([N+](=O)[O-])cc1)c1c(O)c2ccccc2oc1=O (centres undefined) is ____.
95.4

What value of measured growth is listed for CN1C(=O)N(C)C2C1NN=c1s/c(=C\c3ccc(Br)cc3)c(=O)n12 (centres undefined) ?
30.2

Value lookup for growth; key = OC(CCCCCCCCC(O)CN1CCc2ccccc2C1)CN1CCc2ccccc2C1 (centres undefined)
94.7

Need growth of "CC[C@H](C)[C@H](N)C(=O)O" , thanks.
112

Returns the measured growth for the input compound. Input: CC(C)(C)[Si](C)(C)OC1[C@@H](O[Si](C)(C)C(C)(C)C)[C@@H](CNC(=O)NC(=O)NC(=O)CCl)O[C@H]1n1cnc2c(NC(=O)Nc3ccccc3)ncnc21 (some centres undefined)
26.6

Entry "O=C(O)c1ccccc1Oc1cc(-c2ccco2)nc(OCCN2CCOCC2)n1" has what growth?
96.5

Which growth is listed for "CC1=C(/C=C/C(C)=C/C=C(C(=O)O)\C(C)=C\C(=O)O)C(C)(C)CCC1" ?
99.5

Given the entry "Nc1c(N)c2ccccc2c2ccccc12" , report its measured growth.
103

Look up growth: "C/C(=N\Nc1ccc([N+](=O)[O-])cn1)c1ccc(N)cc1"
99.7

# lookup: growth of "C=C1C(=O)O[C@H]2[C@H]1CC/C(COC(=O)NCc1ccc(Cn3c(=O)sn(CCCl)c3=O)cc1)=C\CC[C@@]1(C)O[C@@H]21"
32.4

Reported growth, compound "O=C1/C(=C/c2cc(F)cc(F)c2)Cc2cc(F)cc(F)c21" : ____
99.8

What growth value was documented for this compound, "COC(=O)[C@@H](Cc1c[nH]c2ccccc12)NC(=O)/C=C/c1ccccc1" ?
28.8

growth for C[C@@H]1CC2C3CCC4=CC(=O)C=C[C@]4(C)[C@@]3(Cl)[C@@H](O)C[C@]2(C)[C@@]1(OC(=O)c1ccco1)C(=O)CCl (some centres undefined) ?
80.5

Requested field: growth. Item: "NS(=O)(=O)c1ccc(CCn2c(SCC(=O)N/N=C/c3cc4ccccc4[nH]3)nc3ccccc3c2=O)cc1"
78.9

// query growth value for entry O=C1C=CN2C(=O)CC=CC2[C@@H]1O (some centres undefined)
110

Fill in the blank: the reported growth of "COc1cc(NC(=O)CSc2nc3ccc(Cl)cc3c(=O)n2-c2ccccc2)cc(OC)c1OC" is ____.
92.1
